System: SW-620 colon
Assay: NCI tumour cell line growth inhibition, 48 h
Can you tell me TGI for the items I'm about to list?

Task: Which TGI value belongs to C=CCN1CCC(O)(c2cc(C(=O)OCC)[nH]c2-c2cc(C)no2)C1 (configuration not stated) ?
Output: > 100 µM

Task: Which TGI value belongs to Nc1ccn([C@H]2CO[C@@H](CO)[C@@H]2O)c(=O)n1 ?
Output: > 100 µM

Task: Which TGI value belongs to C=C(Nc1nc2ccc(C)cc2s1)C(=O)C(CC)C(=O)C(CC)CC1C(=O)NC(=O)NC1=O (configuration not stated) ?
Output: > 100 µM

Task: Which TGI value belongs to CN(C)CCNC(=O)c1cccc2ccc(-c3ccc(F)cc3)nc12 ?
Output: 21 µM

Task: Which TGI value belongs to COc1ccc(C(C#N)NNC(=O)Cc2ccccc2)cc1OC (configuration not stated) ?
Output: > 100 µM

Task: Which TGI value belongs to Cc1ccc(S(=O)OCc2c(C)c(C)c(COS(=O)c3ccc(C)cc3)c(C)c2C)cc1 (configuration not stated) ?
Output: > 100 µM

Task: Which TGI value belongs to [N-]=[N+]=NCc1nc(N)c2c3c(sc2n1)CCCC3 ?
Output: > 100 µM

Task: Which TGI value belongs to Cn1c2ccccc2c(=O)c2cccc(C(=O)NC(CS)C(=O)O)c21 (configuration not stated) ?
Output: > 100 µM

Task: Which TGI value belongs to COCOC1C=CCCCC2=CC(C)=C(CC1)O2 (configuration not stated) ?
Output: > 100 µM

Task: Which TGI value belongs to O=C1NC(N/N=C\C(O)C(O)C(O)C(O)CO)=N/C1=C/c1ccc(Cl)cc1 (configuration not stated) ?
Output: > 100 µM

Task: Which TGI value belongs to CC(=O)N1CCC(=O)/C(=C/c2ccccc2)C1 ?
Output: 34.8 µM

Task: Which TGI value belongs to CC(=O)N(C)CCc1c[nH]c2ccccc12 ?
Output: > 100 µM

Task: Which TGI value belongs to CCOC(=O)c1ccc(N=Nc2cc(C(=O)OCC)ccc2O)cc1 ?
Output: > 100 µM

Task: Which TGI value belongs to C[C@]12CCC(=O)C=C1CC[C@@H]1C2CC[C@]2(C)Nc3[nH]ncc3CC12 (some centres not stated) ?
Output: > 100 µM

Task: Which TGI value belongs to NCCc1cc(O)c(O)cc1O ?
Output: 40 µM

Task: Which TGI value belongs to CC(=O)NC1=N/C(=C\c2ccc(Cl)cc2)C(=O)N1/C=C1\C(=O)Oc2ccccc2C1=O ?
Output: > 100 µM

Task: Which TGI value belongs to COc1cc(/C=C/C(=O)Oc2ccc(NC(C)=O)cc2)ccc1C(=O)O/C=C/c1ccccc1 ?
Output: > 100 µM

Task: Which TGI value belongs to COc1ccc(/C=C2\c3cc(OC)c(OC)cc3CCN2C(=O)c2ccccc2)cc1OC ?
Output: > 100 µM

Task: Which TGI value belongs to CC1CN=C(N(C(=O)Nc2ccccc2)c2ccc(Cl)c(Cl)c2)S1 (configuration not stated) ?
Output: > 100 µM

Task: Which TGI value belongs to CC1(C)OC2C(O)C(CO)OC2(C(F)F)O1 (configuration not stated) ?
Output: > 100 µM

Task: Which TGI value belongs to CN(C)CCSc1cc(-c2ccccc2)c2ccccc2n1 ?
Output: 23.2 µM

Task: Which TGI value belongs to O=C(O)c1ccc(C(=O)O)c2c(C(=O)O)ccc(C(=O)O)c12 ?
Output: > 100 µM

Task: Which TGI value belongs to CCCCC/C=C1\CCC(CN(C)C)C1=O (configuration not stated) ?
Output: 11.7 µM

Task: Which TGI value belongs to CC(C)(C)[Si](C)(C)OC1C(=O)C[C@H]2CCCC[C@@H]12 (some centres not stated) ?
Output: > 100 µM

Task: Which TGI value belongs to COc1cccc2nc3c(C(=O)NCCN(C)C)cccc3cc12 ?
Output: 4.83 µM

Task: Which TGI value belongs to Clc1nc(Cl)nc(Nc2cccc3ccccc23)n1 ?
Output: > 100 µM

Task: Which TGI value belongs to O=C(Nc1ccc([N+](=O)[O-])cc1[N+](=O)[O-])C(=O)C(C(=O)c1ccc2ccccc2c1)C1OC(=O)c2ccccc21 (configuration not stated) ?
Output: 30.9 µM
